Just for reference, patent US4395417A is where these values come from.

- tested-target: Acetyl-CoA Synthetase (Mus musculus)
- Construct: gm wet tissue/30 min; from tissue
- Sequence (Q9QXG4 whole entry): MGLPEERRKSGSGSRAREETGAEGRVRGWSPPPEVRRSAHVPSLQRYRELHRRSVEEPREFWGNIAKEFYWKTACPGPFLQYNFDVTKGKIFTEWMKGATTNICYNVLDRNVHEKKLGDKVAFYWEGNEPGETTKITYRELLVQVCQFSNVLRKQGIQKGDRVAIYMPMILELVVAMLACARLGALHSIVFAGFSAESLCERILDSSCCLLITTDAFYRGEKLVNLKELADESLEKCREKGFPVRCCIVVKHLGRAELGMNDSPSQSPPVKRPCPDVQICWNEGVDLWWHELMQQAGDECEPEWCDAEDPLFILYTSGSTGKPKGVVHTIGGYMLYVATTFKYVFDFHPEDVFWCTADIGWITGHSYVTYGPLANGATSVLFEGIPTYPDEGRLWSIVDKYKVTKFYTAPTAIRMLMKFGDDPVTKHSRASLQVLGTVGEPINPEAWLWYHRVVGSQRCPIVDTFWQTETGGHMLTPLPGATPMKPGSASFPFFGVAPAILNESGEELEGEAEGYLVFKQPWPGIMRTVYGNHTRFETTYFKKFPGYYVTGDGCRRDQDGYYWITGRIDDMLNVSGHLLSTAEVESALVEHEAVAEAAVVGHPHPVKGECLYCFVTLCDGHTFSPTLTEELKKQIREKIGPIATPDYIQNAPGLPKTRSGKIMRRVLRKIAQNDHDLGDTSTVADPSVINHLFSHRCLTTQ
- test-description: In vitro acetyl coenzyme A synthetase activity (method of Goodridge)
- Type: biochemical, mice
- stated-conditions: Table 2, N = 6, x ± S.D., control 28.5 mg acetyl CoA formed/gm wet tissue/30 min.
assay-endpoint: Acetyl-CoA Synthetase (% Control)
Answers are plain numbers, in % Control.

State recorded Acetyl-CoA Synthetase for all listed molecules.
1. O=C1NC(=O)c2ccccc21 [Phthalimide]
2. CC(=O)CCN1C(=O)c2ccccc2C1=O
3. CC(=O)CCN1C(=O)c2cccc3cccc(c23)C1=O
4. O=C1NC(=O)c2cccc3cccc1c23 [1,8-Naphthalimide]
5. O=C1CCC(=O)N1 [Succinimide]

Return:
1. 70
2. 53
3. 88
4. 63
5. 74

====

- test-description: Acute toxicity (LD50) in mice
- Assay type: in vivo
- stated-conditions: mouse, in vivo
assay-endpoint: LD50

Enquiry: Fill in: LD50 of `CC(=O)CN1C(=O)c2ccccc2C1=O` is ___
Return: > 2000 mg/kg

====

- System: serum cholesterol
- test-description: Serum cholesterol of male CF1 mice (Liebermann-Burchard reaction)
- Assay type: in vivo
- stated-conditions: Mus musculus, ip, 216 h; Table 3; mice, N = 6, 9th day; control 115 mg %; read-out: serum cholesterol, 9th day
assay-endpoint: response vs control in vivo at 20 mg/kg/day (%)
Answers are plain numbers, in %.

Some compounds with recorded response vs control in vivo at 20 mg/kg/day:
O=C(O)CCN1C(=O)c2ccccc2C1=O :: 74
CC(=O)CCCN1C(=O)c2ccccc2C1=O :: 71
CCCCCN1C(=O)c2ccccc2C1=O [N--n-pentylphthalimide] :: 76

Next item in the queue.
Enquiry: # get_value(readout='response vs control in vivo at 20 mg/kg/day', item= `CC(=O)CN1C(=O)c2ccccc2C1=O` )
Return: 80

====

- tested-target: Acetyl-CoA Synthetase (Mus musculus)
- Construct: gm wet tissue/30 min; from tissue
- test-description: In vitro acetyl coenzyme A synthetase activity (method of Goodridge)
- Type: biochemical, mice
- stated-conditions: Table 3, N = 6, control 10.8 mg/g wet tissue
# if measured in vitro AcCoA synthetase < 70 % Control: 1  # else: 0

Here are 4 compounds together with their reported answers.
CCCCCCCCN1C(=O)c2ccccc2C1=O [N--n-octylphthalimide] :: 0
CC(=O)CCCN1C(=O)c2ccccc2C1=O :: 1
CC(=O)OCN1C(=O)c2ccccc2C1=O [N--phthalimidomethyl acetate] :: 1
O=C(O)CCN1C(=O)c2ccccc2C1=O :: 1

Enquiry: Could you please tell me whether in vitro AcCoA synthetase recorded for CCN1C(=O)c2ccccc2C1=O [N--ethylphthalimide] is less than 70 % Control?
Return: 0

====

- tested-target: Acetyl-CoA Synthetase (Mus musculus)
- Construct: gm wet tissue/30 min; from tissue
- test-description: In vitro acetyl coenzyme A synthetase activity (method of Goodridge)
- Format: biochemical, mice
- stated-conditions: Table 2, N = 6, x ± S.D., control 28.5 mg acetyl CoA formed/gm wet tissue/30 min.
assay-endpoint: Acetyl-CoA Synthetase (% Control)
Answers are plain numbers, in % Control.

Some solved cases for reference:
CC(=O)CCN1C(=O)c2ccccc2S1(=O)=O [1-N--(o-Benzosulfimido)butan-3-one] :: 74
CCCCN1C(=O)c2ccccc2C1=O [N--n-Butylphthalimide] :: 44
CC(=O)CN1C(=O)c2ccccc2C1=O [1-N--Phthalimidopropan-2-one] :: 58
O=C1NS(=O)(=O)c2ccccc21 [Saccharin] :: 61
O=C(O)CCN1C(=O)c2ccccc2C1=O [3-N--Phthalimidopropionic Acid] :: 57

Would you kindly look at the next entry?
Enquiry: Quick one: Acetyl-CoA Synthetase of CC(=O)CCN1C(=O)CCC1=O [1-N--Succinimidobutan-3-one] ?
Return: 58
